molecular target: T1, Her2 extracellular domain (Her2 ECD) (human, UniProt P04626 23-652); assay: SPR (BIAcore T100), IgG on anti-human IgG (Fc) capture chip, Her2 ECD, 1:1 Langmuir fit
T1 construct: For the crystal structure it was expressed in CHO cells and the complex was enzymatically deglycosylated; also called biotinylated Her2 ECD
Recorded Metric: pKd
// pKd: -log10(molar conc.)

Item under review: 7C2.v1.3 (antibody, V domains shown) VH: EVQLVQSGAEVKKPGASVKVSCKASGYSFTGYWMNWLRQAPGQGLEWIGMIHPSDSEIRANQKFRDRATLTVDKSTSTAYLELSSLRSEDTAVYYCARGTYDGGFEYWGQGTLVTVSS VL: DIVMTQSPDSLAVSLGERATINCRASQSVSGSRFTYMHWYQQKPGQPPKLLIYYASILESGVPDRFSGSGSGTDFTLTISSLQAEDVAVYYCQHSWEIPPWTFGQGTKVEIK . Reported pKd? 7.96

What do you have for 7C2.v2.3 (antibody, V domains shown) VH: EVQLVQSGAEVKKPGASVKVSCKASGYSFTGYWMNWLRQAPGQGLEWIGMIHPSDSEIRANQKFRDRATLTVDKSTSTAYLELSSLRSEDTAVYYCARGTYDGGFEYWGQGTLVTVSS VL: DIVMTQSPDSLAVSLGERATINCRASQSVSGSRFTYMHWYQQKPGQPPKLLIKYASILESGVPDRFSGSGSGTDFTLTISSLQAEDVAVYYCQHSWEIPPWTFGQGTKVEIK ? 8.00

Please do the same for 7C2.v2.1 (antibody, V domains shown, Expressed as IgG for SPR; also called hu7C2.v2.1) VH: EVQLVQSGAEVKKPGASVKVSCKASGYSFTGYWMNWVRQAPGQGLEWIGMIHPSDSEIRANQKFRDRVTITRDTSTSTAYLELSSLRSEDTAVYYCARGTYDGGFEYWGQGTLVTVSS VL: DIVMTQSPDSLAVSLGERATINCRASQSVSGSRFTYMHWYQQKPGQPPKLLIKYASILESGVPDRFSGSGSGTDFTLTISSLQAEDVAVYYCQHSWEIPPWTFGQGTKVEIK as well. 7.80

All values here come from patent US20230041134A1.
